System: anesthetized rats
Assay: Acute cardiovascular and renal effects of an intravenous bolus in anesthetized rats (Example 1)
Type: in vivo, male Sprague-Dawley rats
Conditions: 33.5 μmoles/kg intravenous bolus

# molecule, efficacy grouping (diuretic/natriuretic)
measured = [
    ("Nc1nc2c(nc(O)n2[C@@H]2O[C@H](CO)[C@@H](O)[C@H]2O)c(=O)[nH]1 [8-hydroxyguanosine, 8-Hydroxyguanosine]", "moderate efficacy"),
    ("Nc1nc2c(ncn2[C@@H]2O[C@H](CO)[C@@H](O)[C@H]2O)c(=O)[nH]1 [guanosine, Guanosine]", "little or no efficacy"),
    ("Nc1nc2c(nc(O)n2[C@H]2C[C@H](O)[C@@H](CO)O2)c(=O)[nH]1 [8-hydroxy-2-deoxyguanosine]", "little or no efficacy"),
    ("Nc1nc2[nH]cnc2c(=O)[nH]1 [guanine, Guanine, reference compound]", "moderate efficacy"),
    ("Nc1nc2[nH]c(O)nc2c(=O)[nH]1 [8-hydroxyguanine, 8-Hydroxyguanine]", "moderate efficacy"),
    ("Nc1nc2[nH]c([N+](=O)[O-])nc2c(=O)[nH]1 [8-nitroguanine, 8-Nitroguanine]", "moderate efficacy"),
    ("Nc1nc2c(nc([N+](=O)[O-])n2[C@@H]2O[C@H](CO)[C@@H](O)[C@H]2O)c(=O)[nH]1 [8-nitroguanosine]", "little or no efficacy"),
]
